target: T1, ZIKV (prM80E) with a C-terminal myc-myc-hexahistidine tag (Zika virus, UniProt A0A024B7W1 104-694); test: SPR, mAb captured, 37C, pH 5.5 chase
T1 construct: also called ZIKV (prM80E)-mmH; ZIKV-mmH
Reported Endpoint: t½ (min)
Note: unit min is implicit; provide only the numeric part.

Reported t½ of H4H25619P (antibody, V domains shown) VH: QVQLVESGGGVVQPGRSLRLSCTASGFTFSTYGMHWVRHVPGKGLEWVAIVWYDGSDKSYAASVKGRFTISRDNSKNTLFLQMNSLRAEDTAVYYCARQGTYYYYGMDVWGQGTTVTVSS VL: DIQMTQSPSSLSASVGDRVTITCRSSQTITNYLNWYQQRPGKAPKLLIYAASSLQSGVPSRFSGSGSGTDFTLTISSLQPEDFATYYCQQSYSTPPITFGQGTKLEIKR : 12.1

Reported t½ of H4H25640P (antibody, V domains shown) VH: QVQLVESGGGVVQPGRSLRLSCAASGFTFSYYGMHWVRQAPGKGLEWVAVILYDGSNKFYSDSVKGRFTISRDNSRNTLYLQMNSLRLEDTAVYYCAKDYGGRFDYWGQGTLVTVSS VL: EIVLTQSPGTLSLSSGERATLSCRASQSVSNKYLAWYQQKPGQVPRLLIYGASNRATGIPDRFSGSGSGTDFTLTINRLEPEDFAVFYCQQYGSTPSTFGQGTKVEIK : 2.87
